- Tested on: NCI-H2122 cells
- Experimental Protocol: NCI-H2122 CTG proliferation assay (120 h) (NSCLC, G12C)
- Assay type: cell-based
- Experimental Context: Homo sapiens
Property Name: IC50 (nM)

Answered cases to consult:
Compound | IC50 (nM)
CN[C@H]1CCN(c2cc(O[C@@H](C)[C@@H]3CCCN3C)nc(-c3noc4c3CCC[C@@]43CCCc4sc(N)c(C#N)c43)n2)C1 [II-35] | 4800
C[C@@H]1CN(c2cc(O[C@@H](C)[C@@H]3CCCN3C)nc(-c3noc4c3CCC[C@@]43CCCc4sc(N)c(C#N)c43)n2)C[C@H](C)N1 [II-36] | 3480
CO[C@@H]1C[C@@H]([C@H](C)Oc2cc(-c3cnn(C)n3)nc(-c3onc4c3CCC[C@@]43CCCc4sc(N)c(C#N)c43)n2)N(C)C1 [I-17] | 4230
C[C@H](Oc1cc(-c2cccc(CO)c2)nc(-c2noc3c2CCC[C@@]32CCCc3sc(N)c(C#N)c32)n1)[C@@H]1CCCN1C [II-97] | 2020
C[C@H](Oc1cc(-n2ccc(C(=O)NC3(C)COC3)n2)nc(-c2noc3c2CCC[C@@]32CCCc3sc(N)c(C#N)c32)n1)[C@@H]1CCCN1C [II-26] | 143

(a) CC(C)[C@@H]1CN(c2cc(O[C@@H](C)[C@@H]3CCCN3C)nc(-c3noc4c3CCC[C@@]43CCCc4sc(N)c(C#N)c43)n2)CCN1 [II-166]
(b) C[C@H](Oc1cc(-c2ccn([C@H]3CCCOC3)n2)nc(-c2noc3c2CCC[C@@]32CCCc3sc(N)c(C#N)c32)n1)[C@@H]1CCCN1C [II-42]
Query block: Returns: the label, a or b , whose recorded IC50 is the lower number. // respond with label for picked entry
Result block: b
(b: 357 nM, a: 1250 nM)

(I) C[C@H](Oc1cc(-n2cc(C3CC3)nn2)nc(-c2noc3c2CCC[C@@]32CCCc3sc(N)c(C#N)c32)n1)[C@@H]1CCCN1C [II-118]
(II) C[C@H](Oc1cc(N2CCNC3(COC3)C2)nc(-c2noc3c2CCC[C@@]32CCCc3sc(N)c(C#N)c32)n1)[C@@H]1C[C@@H](F)CN1C [II-150]
(III) C[C@H](Oc1cc(-n2cc3c(n2)CCNC3)nc(-c2noc3c2CCC[C@@]32CCCc3sc(N)c(C#N)c32)n1)[C@@H]1CCCN1C [II-53]
Query block: Arrange the 3 compounds by rising IC50, starting with the smallest. Ranked list of labels, please, in the requested order.
Result block: I, II, III

# credit: patent US20240174690A1
